Listing: pIC50 of selected compounds
- experimental-system: Cytochrome P450 2C9 (Homo sapiens, UniProt P11712)
- Sequence (P11712 whole entry): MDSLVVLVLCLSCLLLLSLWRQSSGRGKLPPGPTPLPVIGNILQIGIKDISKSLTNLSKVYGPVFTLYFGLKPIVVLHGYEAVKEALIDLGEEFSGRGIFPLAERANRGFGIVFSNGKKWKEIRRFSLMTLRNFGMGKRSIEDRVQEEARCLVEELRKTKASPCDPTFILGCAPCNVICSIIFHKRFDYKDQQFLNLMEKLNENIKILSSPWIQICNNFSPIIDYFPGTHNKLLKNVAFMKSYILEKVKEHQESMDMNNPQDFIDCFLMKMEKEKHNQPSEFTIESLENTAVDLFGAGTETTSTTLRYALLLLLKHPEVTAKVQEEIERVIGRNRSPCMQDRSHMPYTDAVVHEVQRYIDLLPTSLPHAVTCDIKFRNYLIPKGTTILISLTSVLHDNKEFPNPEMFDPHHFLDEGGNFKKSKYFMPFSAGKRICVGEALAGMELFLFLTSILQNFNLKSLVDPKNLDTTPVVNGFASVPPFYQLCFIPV
- assay-name: Inhibition of cytochrome P450 2C9
- Format: ADME
Value format note: pIC50 is -log10 of concentration (mol/L); just state the number.

In [3]: df
Out[3]:
                              record_smiles  test_result
0  CCN1c2ncc(CSc3cc(C)nc(C)c3)cc2C(=O)Nc2c(C)cc(Cl)nc21         5.59

# compound CCN1c2ncc(CSc3cc(C)nc(C)c3)cc2C(=O)Nc2c(C)cc(F)nc21 ; its pIC50 = 5.35

// provenance: ChEMBL document CHEMBL1137947
